# assay protocol: growth suppression of PTEN-deleted HCT116, pilot screen, cell-based, HCT116 clonal line, CellTiter-Glo (AID 824);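 note: 0% = 20 µM Hyamine control and 100% = vehicle cell control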
# measurement conditions: 60 h, at 10 µM, active compounds read low
Records with an inconclusive call do not appear.
Known viability of a selection of molecules
Numbers only; they are read as %.

Worked set:
molecule=c1ccc(-c2nnc(-c3ccccn3)nn2)nc1 value_type=viability observed_value=83
molecule=COc1cc(CN2CCN(CCOCCO)CC2)cc(OC)c1OC value_type=viability observed_value=96.8
molecule=COC1=CC(=O)OC12CCCCC2 value_type=viability observed_value=95.8
molecule=CCn1cc(C(=O)Nc2ccc3c(c2)OCCO3)c2cc(OC)c(OC)cc2c1=O value_type=viability observed_value=88.6
molecule=CC(=O)c1c(C)[nH]c(C(=O)Nc2cc(C)ccc2C)c1C value_type=viability observed_value=96.6
molecule="Cc1cc(NC(=O)CSc2nc3c(c(=O)n2-c2ccccc2)SC(C)C3)no1 (configuration not stated)" value_type=viability observed_value=91.2
molecule=Cc1cc(N2CCOCC2)cc(C)[n+]1[O-] value_type=viability observed_value=93.2
molecule="COc1cc(OC)c(C2N(c3ccc(Cl)cc3)C(=O)C3CCCN32)cc1OC (configuration not stated)" value_type=viability observed_value=96.7
molecule=CCCCn1c(CNC(=O)c2cccs2)nc2ccccc21 value_type=viability observed_value=94.5
molecule=O=C(CC(c1ccccc1)c1ccccc1)Nc1ncn[nH]1 value_type=viability observed_value=90.1

Ask: Quick one: viability of Cc1noc(NS(=O)(=O)c2ccc(NC(=O)CSc3nc4c(cc3C#N)CCCC4)cc2)c1C ?
Result: 101

Ask: Quick one: viability of Cc1ccc2nc(N3CCOCC3)c3nncn3c2c1 ?
Result: 96.1

----------
Known RAM network inhibition of a selection of compounds
# assay protocol: RAM signaling pathway blockade in yeast – S. cerevisiae, Pdr1DBD-CYC8 efflux-inhibited sensitized strain, primary screen (AID 1298);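 note: 0% = DMSO untreated cells without growth and 100% = 10 µM 1-NA-PP1 full growth; higher means more yeast growth rescued from 5-FOA killing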
# measurement conditions: S. cerevisiae cbk1-as DSE1-URA3 strain, 5-FOA growth OD615, 2 d; at 50 µM; active compounds read high
Numbers only; they are read as %.

Ask: Quick one: RAM network inhibition of O=C(NC1CCCc2ccccc21)C1CCN(c2c(N3CCCC3)c(=O)c2=O)CC1 (stereo unspecified) ?
Result: -0.37

----------
# assay protocol: growth suppression of PTEN-deleted HCT116, pilot screen, cell-based, HCT116 clonal line, CellTiter-Glo (AID 824);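 note: 0% = 20 µM Hyamine control and 100% = vehicle cell control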
# measurement conditions: 60 h, at 10 µM, active compounds read low
Inconclusive results are not listed.
value type: viability (%)
Numbers only; they are read as %.

Worked set:
compound=CCOc1ccccc1Nc1nnc(C)c(=O)[nH]1 observed_value=99.3
compound=CSc1ncccc1C(=O)OCC(=O)c1cc2ccccc2o1 observed_value=93.7
compound="O=C1C(=O)N(CCO)C(c2ccccc2)/C1=C(\\O)c1ccccc1 (stereo unspecified)" observed_value=101
compound=CC(=O)NCC(=O)NC1(C(=O)NC2CCCC2)CCCCC1 observed_value=99.6
compound=CC(=O)Nc1ccc(S(=O)(=O)Nc2nc(C)cc(-n3nc(C)cc3C)n2)cc1 observed_value=102

Ask: Quick one: viability of Nc1cc(=O)[nH]c(SCc2nc3ccccc3n2Cc2ccccc2)n1 ?
Result: 89

Ask: Quick one: viability of Cc1ccc(/C(O)=C2\C(=O)C(=O)N(CCN(C)C)C2c2ccccc2F)cc1 (stereo unspecified) ?
Result: 87.1

Ask: Quick one: viability of CCc1ccc(N2CCN(C(=O)c3ccc(OC)c(OC)c3)CC2)cc1 ?
Result: 79

Ask: Quick one: viability of CCOC(=O)N1CCN(C(c2ccc(C(C)C)cc2)c2sc3nc(C)nn3c2O)CC1 (stereo unspecified) ?
Result: 91

Ask: Quick one: viability of COc1ccc(-c2nc(Cn3c(SCc4cccc(F)c4)nc4ccncc43)c(C)o2)cc1OC ?
Result: 60.1

Ask: Quick one: viability of Cc1ccc(CCN2CC(C(=O)NCc3cccnc3)CC2=O)cc1 (stereo unspecified) ?
Result: 94.5
